Source: patent US10562935B2

- test_details: circular dichroism
- particulars: water (methods paragraph says 0.1 M phosphate; tables say water); pH ns; 20 °C; 0.5 mM
Where a SMILES comes first, the peptide text is derived from it. Bridges are numbered along the chain shown (N, C = ends).
Consider the following compounds; for each one, report its helicity.
Value and unit, in that order.

The cases that follow already have their helicity on record.
compound	metric	recorded_value
CC(=O)N[C@H](C(=O)N[C@@H](CO)C(=O)N[C@@H](CCCCN)C(=O)N[C@@H](CC(C)C)C(=O)N[C@H]1CCCCNC(=O)CC[C@@H](C(=O)N[C@@H](CCCCN)C(=O)N[C@@H](CCCNC(=N)N)C(=O)N[C@@H](CCCCN)C(=O)N[C@@H](CCC(N)=O)C(=O)N[C@@H](CC(N)=O)C(N)=O)NC(=O)[C@H](CC(C)C)NC(=O)[C@H](CCC(N)=O)NC(=O)[C@H](CO)NC1=O)C(C)C (Ac-VSKLKSQLEKRKQN-NH2; lactam 5-9)	helicity	-974 MRE222
CC(=O)N[C@H](C(=O)N[C@@H](CO)C(=O)N[C@@H](CCCCN)C(=O)N[C@H]1CCC(=O)NCCCC[C@@H](C(=O)N[C@H](C(=O)N[C@@H](CCCCN)C(=O)N[C@@H](CCCNC(=N)N)C(=O)N[C@@H](CCCCN)C(=O)N[C@@H](CCC(N)=O)C(=O)N[C@@H](CC(N)=O)C(N)=O)C(C)C)NC(=O)[C@H](CCC(N)=O)NC(=O)[C@H](CO)NC(=O)[C@H](CCCNC(=N)N)NC1=O)C(C)C (Ac-VSKERSQKVKRKQN-NH2; lactam 4-8)	helicity	-3350 MRE222

Shifting focus to the compound that follows.
Item CC(=O)N[C@H](C(=O)N[C@@H](CO)C(=O)N[C@@H](CCCCN)C(=O)N[C@@H](CC(C)C)C(=O)N[C@H]1CCC(=O)NCCCC[C@@H](C(=O)N[C@@H](CCCCN)C(=O)N[C@@H](CCCNC(=N)N)C(=O)N[C@@H](CCCCN)C(=O)N[C@@H](CCC(N)=O)C(=O)N[C@@H](CC(N)=O)C(N)=O)NC(=O)[C@H](CC(C)C)NC(=O)[C@H](CCC(N)=O)NC(=O)[C@H](CO)NC1=O)C(C)C (Ac-VSKLESQLKKRKQN-NH2; lactam 5-9) has what recorded helicity?
-6450 MRE222

----------
Give measured [0]208 mean residue ellipticity for each item. Keep answers brief.
- test_details: Circular dichroism (CD) spectroscopy of linear and stapled peptides in water or 40% TFE/water (Example 3)
- Format: physicochemical
- particulars: λ = 208 nm; in 40% TFE/water
Bridges are numbered along the chain shown (N, C = ends).

substance	recorded_value
Ac-(cyclo-6,10)-VSKLR[EQLVK]RKQN-NH2 (Ac-VSKLREQLVKRKQN-NH2; lactam 6-10; SMILES CC(=O)N[C@H](C(=O)N[C@@H](CO)C(=O)N[C@@H](CCCCN)C(=O)N[C@@H](CC(C)C)C(=O)N[C@@H](CCCNC(=N)N)C(=O)N[C@H]1CCC(=O)NCCCC[C@@H](C(=O)N[C@@H](CCCNC(=N)N)C(=O)N[C@@H](CCCCN)C(=O)N[C@@H](CCC(N)=O)C(=O)N[C@@H](CC(N)=O)C(N)=O)NC(=O)[C@H](C(C)C)NC(=O)[C@H](CC(C)C)NC(=O)[C@H](CCC(N)=O)NC1=O)C(C)C) [Compound 152]	-1.50E+04 deg cm^2 dmol^−1
Ac-(cyclo-5,9)-VSKL[KSQLE]KRKQN-NH2 (Ac-VSKLKSQLEKRKQN-NH2; lactam 5-9; SMILES CC(=O)N[C@H](C(=O)N[C@@H](CO)C(=O)N[C@@H](CCCCN)C(=O)N[C@@H](CC(C)C)C(=O)N[C@H]1CCCCNC(=O)CC[C@@H](C(=O)N[C@@H](CCCCN)C(=O)N[C@@H](CCCNC(=N)N)C(=O)N[C@@H](CCCCN)C(=O)N[C@@H](CCC(N)=O)C(=O)N[C@@H](CC(N)=O)C(N)=O)NC(=O)[C@H](CC(C)C)NC(=O)[C@H](CCC(N)=O)NC(=O)[C@H](CO)NC1=O)C(C)C) [Compound 154]	-1.18E+04 deg cm^2 dmol^−1
Ac-(cyclo-8,12)-NLKQKIK[EVVKK]KDE-NH2 (Ac-NLKQKIKEVVKKKDE-NH2; lactam 8-12; SMILES CC[C@H](C)[C@H](NC(=O)[C@H](CCCCN)NC(=O)[C@H](CCC(N)=O)NC(=O)[C@H](CCCCN)NC(=O)[C@H](CC(C)C)NC(=O)[C@H](CC(N)=O)NC(C)=O)C(=O)N[C@@H](CCCCN)C(=O)N[C@H]1CCC(=O)NCCCC[C@@H](C(=O)N[C@@H](CCCCN)C(=O)N[C@@H](CC(=O)O)C(=O)N[C@@H](CCC(=O)O)C(N)=O)NC(=O)[C@H](CCCCN)NC(=O)[C@H](C(C)C)NC(=O)[C@H](C(C)C)NC1=O) [Compound 161]	-1.96E+04 deg cm^2 dmol^−1

Next item in the queue.
Field request: [0]208 mean residue ellipticity | item: Ac-(cyclo-7,11)-VSKLRS[ELVKK]KQN-NH2 (Ac-VSKLRSELVKKKQN-NH2; lactam 7-11; SMILES CC(=O)N[C@H](C(=O)N[C@@H](CO)C(=O)N[C@@H](CCCCN)C(=O)N[C@@H](CC(C)C)C(=O)N[C@@H](CCCNC(=N)N)C(=O)N[C@@H](CO)C(=O)N[C@H]1CCC(=O)NCCCC[C@@H](C(=O)N[C@@H](CCCCN)C(=O)N[C@@H](CCC(N)=O)C(=O)N[C@@H](CC(N)=O)C(N)=O)NC(=O)[C@H](CCCCN)NC(=O)[C@H](C(C)C)NC(=O)[C@H](CC(C)C)NC1=O)C(C)C) [Compound 153]
-1.02E+04 deg cm^2 dmol^−1

----------
- test_details: Circular dichroism (CD) spectroscopy of linear and stapled peptides in water or 40% TFE/water (Example 3)
- Format: physicochemical
- particulars: water
metric: [0]222/[0]208 ratio of ellipticities
Answers are plain numbers.

substance	[0]222/[0]208 ratio of ellipticities
Ac-(cyclo-11-15, cyclo-16-20)-KIKHVVKLKD[ENSQK][ESEVK]KLRSQLVKRIK-NH2 [Compound 267]	0.48
Ac-NLKQKIKHVVKLKDENSQLKSEVSKLRSQLVKRKQN-NH2 [Compound 275]	0.35
Ac-(cyclo-10-14, cyclo-15-19)-KIKHVVKLK[KENSE][EKSEK]SKLRSQLVKRK-NH2 [Compound 269]	0.44

API: the following record is the query input.
For the substance Ac-KIKHVVKLKDENSQLKSEVSKLRSQLVKRK-NH2 [Compound 265] , what [0]222/[0]208 ratio of ellipticities is on record?
0.40

----------
- test_details: Direct HA-binding ELISA of biotinylated peptides on HA coated plates (Example 4)
- particulars: optical density; summary tables 15, 17, 19
Bridges are numbered along the chain shown (N, C = ends).
metric: HA direct binding (OD)
Express your answer as a number followed by its unit.

List the reported HA direct binding (OD) of each substance below.
1. Ac-(cyclo-5,9)-VSKL[KSQLE]KRKQN-NH2 (Ac-VSKLKSQLEKRKQN-NH2; lactam 5-9; SMILES CC(=O)N[C@H](C(=O)N[C@@H](CO)C(=O)N[C@@H](CCCCN)C(=O)N[C@@H](CC(C)C)C(=O)N[C@H]1CCCCNC(=O)CC[C@@H](C(=O)N[C@@H](CCCCN)C(=O)N[C@@H](CCCNC(=N)N)C(=O)N[C@@H](CCCCN)C(=O)N[C@@H](CCC(N)=O)C(=O)N[C@@H](CC(N)=O)C(N)=O)NC(=O)[C@H](CC(C)C)NC(=O)[C@H](CCC(N)=O)NC(=O)[C@H](CO)NC1=O)C(C)C) [Compound 154]
2. Ac-VSKLRSQLVKRKQN-NH2 [Compound 132]
3. Ac-(cyclo-5,9)-VSKL[ESQLK]KRKQN-NH2 (Ac-VSKLESQLKKRKQN-NH2; lactam 5-9; SMILES CC(=O)N[C@H](C(=O)N[C@@H](CO)C(=O)N[C@@H](CCCCN)C(=O)N[C@@H](CC(C)C)C(=O)N[C@H]1CCC(=O)NCCCC[C@@H](C(=O)N[C@@H](CCCCN)C(=O)N[C@@H](CCCNC(=N)N)C(=O)N[C@@H](CCCCN)C(=O)N[C@@H](CCC(N)=O)C(=O)N[C@@H](CC(N)=O)C(N)=O)NC(=O)[C@H](CC(C)C)NC(=O)[C@H](CCC(N)=O)NC(=O)[C@H](CO)NC1=O)C(C)C) [Compound 151]

1. 0.045 OD
2. 0.03 OD
3. 0.01 OD

----------
- test_details: Direct HA-binding ELISA of biotinylated peptides on HA coated plates (Example 4)
- particulars: optical density; summary tables 15, 17, 19
Bridges are numbered along the chain shown (N, C = ends).
Consider the following substances; for each one, report its HA direct binding (OD).
Numbers only, in OD.

Field: example entries. Status: answers known.
substance	HA direct binding (OD)
Ac-NLKQKIKHVVKLKDE-NH2 [Compound 156]	0.01
Ac-(cyclo-7,11)-VSKLRS[ELVKK]KQN-NH2 (Ac-VSKLRSELVKKKQN-NH2; lactam 7-11; SMILES CC(=O)N[C@H](C(=O)N[C@@H](CO)C(=O)N[C@@H](CCCCN)C(=O)N[C@@H](CC(C)C)C(=O)N[C@@H](CCCNC(=N)N)C(=O)N[C@@H](CO)C(=O)N[C@H]1CCC(=O)NCCCC[C@@H](C(=O)N[C@@H](CCCCN)C(=O)N[C@@H](CCC(N)=O)C(=O)N[C@@H](CC(N)=O)C(N)=O)NC(=O)[C@H](CCCCN)NC(=O)[C@H](C(C)C)NC(=O)[C@H](CC(C)C)NC1=O)C(C)C) [Compound 153]	0.08

Now look at this entry.
Recorded HA direct binding (OD) for Ac-(cyclo-6,10)-VSKLR[KQLVE]RKQN-NH2 (Ac-VSKLRKQLVERKQN-NH2; lactam 6-10; SMILES CC(=O)N[C@H](C(=O)N[C@@H](CO)C(=O)N[C@@H](CCCCN)C(=O)N[C@@H](CC(C)C)C(=O)N[C@@H](CCCNC(=N)N)C(=O)N[C@H]1CCCCNC(=O)CC[C@@H](C(=O)N[C@@H](CCCNC(=N)N)C(=O)N[C@@H](CCCCN)C(=O)N[C@@H](CCC(N)=O)C(=O)N[C@@H](CC(N)=O)C(N)=O)NC(=O)[C@H](C(C)C)NC(=O)[C@H](CC(C)C)NC(=O)[C@H](CCC(N)=O)NC1=O)C(C)C) [Compound 155] , please?
0.05
